Tested on: 282377-053-R-J1-PDC complex spheroid viability
methodDescription: Anticancer human tumor 282377-053-R-J1-PDC patient-derived colon adenocarcinoma cell line growth inhibition [POLQ]
setupConditions: second compound 3.16 µM; first compound 0.316 µM; active compounds read low
Each entry below carries its reported viability, T/C.

>  <molecule>
C#Cc1c(F)ccc2cc(O)cc(-c3ncc4c(N5CC6CCC(C5)N6)nc(OCC56CCCN5CC(F)C6)nc4c3F)c12 (stereo not given) + Cc1cccc(N(C)C(=O)C2C(O)CCN2c2nc(C)cc(C(F)(F)F)c2C#N)c1

>  <assayedTarget>
282377-053-R-J1-PDC complex spheroid viability

>  <viability, T/C / %>
73.3

$$$$
>  <molecule>
CCCS(=O)(=O)Nc1ccc(F)c(C(=O)c2c[nH]c3ncc(-c4ccc(Cl)cc4)cc23)c1F + COC1C(OC(N)=O)C(O)C(Oc2ccc3c(O)c(NC(=O)c4ccc(O)c(CC=C(C)C)c4)c(=O)oc3c2C)OC1(C)C

>  <assayedTarget>
282377-053-R-J1-PDC complex spheroid viability

>  <viability, T/C / %>
68.7

$$$$
>  <molecule>
COc1cc(C2c3cc4c(cc3C(OC3OC5COC(C)OC5C(O)C3O)C3COC(=O)C23)OCO4)cc(OC)c1O (stereo not given) + COC1C(OC(N)=O)C(O)C(Oc2ccc3c(O)c(NC(=O)c4ccc(O)c(CC=C(C)C)c4)c(=O)oc3c2C)OC1(C)C

>  <assayedTarget>
282377-053-R-J1-PDC complex spheroid viability

>  <viability, T/C / %>
97.2

$$$$
>  <molecule>
CC1COCCN1c1cc(-c2ccnn2C)c2ccnc(-c3ccn[nH]3)c2n1 (stereo not given) + Cc1cccc(N(C)C(=O)C2C(O)CCN2c2nc(C)cc(C(F)(F)F)c2C#N)c1

>  <assayedTarget>
282377-053-R-J1-PDC complex spheroid viability

>  <viability, T/C / %>
61.5

$$$$
>  <molecule>
CCc1c2c(nc3ccc(O)cc13)-c1cc3c(c(=O)n1C2)COC(=O)[C@]3(O)CC + Cc1cccc(N(C)C(=O)C2C(O)CCN2c2nc(C)cc(C(F)(F)F)c2C#N)c1

>  <assayedTarget>
282377-053-R-J1-PDC complex spheroid viability

>  <viability, T/C / %>
40.8

$$$$
>  <molecule>
O=c1[nH]cc(F)c(=O)[nH]1 + Cc1cccc(N(C)C(=O)C2C(O)CCN2c2nc(C)cc(C(F)(F)F)c2C#N)c1

>  <assayedTarget>
282377-053-R-J1-PDC complex spheroid viability

>  <viability, T/C / %>
80.6

$$$$
>  <molecule>
C#Cc1c(F)ccc2cc(O)cc(-c3ncc4c(N5CC6CCC(C5)N6)nc(OCC56CCCN5CC(F)C6)nc4c3F)c12 (stereo not given) + Nc1ccc(C#CCN(C(=O)Cc2ncc(C(F)(F)F)cc2C(F)(F)F)c2ccc(F)cc2)nn1

>  <assayedTarget>
282377-053-R-J1-PDC complex spheroid viability

>  <viability, T/C / %>
94

$$$$
>  <molecule>
COc1ccc([C@@H](O)c2cc(-c3ncnc4cc(N5CCOCC5)ccc34)c(F)cc2Cl)nn1 + Nc1ccc(C#CCN(C(=O)Cc2ncc(C(F)(F)F)cc2C(F)(F)F)c2ccc(F)cc2)nn1

>  <assayedTarget>
282377-053-R-J1-PDC complex spheroid viability

>  <viability, T/C / %>
92.5

$$$$
>  <molecule>
C=CC(=O)N1CCN(c2nc(=O)n(-c3c(C)ccnc3C(C)C)c3nc(-c4c(O)cccc4F)c(F)cc23)C(C)C1 (stereo not given) + Nc1ccc(C#CCN(C(=O)Cc2ncc(C(F)(F)F)cc2C(F)(F)F)c2ccc(F)cc2)nn1

>  <assayedTarget>
282377-053-R-J1-PDC complex spheroid viability

>  <viability, T/C / %>
92.8

$$$$
>  <molecule>
COc1cc(C2c3cc4c(cc3C(OC3OC5COC(C)OC5C(O)C3O)C3COC(=O)C23)OCO4)cc(OC)c1O (stereo not given) + Nc1ccc(C#CCN(C(=O)Cc2ncc(C(F)(F)F)cc2C(F)(F)F)c2ccc(F)cc2)nn1

>  <assayedTarget>
282377-053-R-J1-PDC complex spheroid viability

>  <viability, T/C / %>
119

$$$$

---

Tested on: 282377-053-R-J1-PDC complex spheroid viability
methodDescription: Anticancer human tumor 282377-053-R-J1-PDC cell line growth inhibition [POLQ];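 note: spheroids exposed to compounds for seven days; 100% = DMSO vehicle control viability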
setupConditions: second compound 0.316 µM; first compound 0.0316 µM; active compounds read low
Each entry below carries its reported viability, T/C.
quantityMeasured: viability, T/C (%)

>  <molecule>
CC1COCCN1c1cc(-c2ccnn2C)c2ccnc(-c3ccn[nH]3)c2n1 (stereo not given) + COC1C(OC(N)=O)C(O)C(Oc2ccc3c(O)c(NC(=O)c4ccc(O)c(CC=C(C)C)c4)c(=O)oc3c2C)OC1(C)C

>  <assayedTarget>
282377-053-R-J1-PDC complex spheroid viability

>  <endpointUnit>
%

>  <reportedResult>
95.6

$$$$
>  <molecule>
C=CC(=O)N1CCN(c2nc(=O)n(-c3c(C)ccnc3C(C)C)c3nc(-c4c(O)cccc4F)c(F)cc23)C(C)C1 (stereo not given) + COC1C(OC(N)=O)C(O)C(Oc2ccc3c(O)c(NC(=O)c4ccc(O)c(CC=C(C)C)c4)c(=O)oc3c2C)OC1(C)C

>  <assayedTarget>
282377-053-R-J1-PDC complex spheroid viability

>  <endpointUnit>
%

>  <reportedResult>
105

$$$$
>  <molecule>
CC(C)n1c(=O)n(C)c2cnc3cc(F)c(-c4ccc(OCCCN5CCCCC5)nc4)cc3c21 + Nc1ccc(C#CCN(C(=O)Cc2ncc(C(F)(F)F)cc2C(F)(F)F)c2ccc(F)cc2)nn1

>  <assayedTarget>
282377-053-R-J1-PDC complex spheroid viability

>  <endpointUnit>
%

>  <reportedResult>
111

$$$$
>  <molecule>
CC(C)n1c(=O)n(C)c2cnc3cc(F)c(-c4ccc(OCCCN5CCCCC5)nc4)cc3c21 + COC1C(OC(N)=O)C(O)C(Oc2ccc3c(O)c(NC(=O)c4ccc(O)c(CC=C(C)C)c4)c(=O)oc3c2C)OC1(C)C

>  <assayedTarget>
282377-053-R-J1-PDC complex spheroid viability

>  <endpointUnit>
%

>  <reportedResult>
108

$$$$
>  <molecule>
O=C(c1cc(Cc2n[nH]c(=O)c3ccccc23)ccc1F)N1CCN(C(=O)C2CC2)CC1 + Cc1cccc(N(C)C(=O)C2C(O)CCN2c2nc(C)cc(C(F)(F)F)c2C#N)c1

>  <assayedTarget>
282377-053-R-J1-PDC complex spheroid viability

>  <endpointUnit>
%

>  <reportedResult>
83.3

$$$$
>  <molecule>
CCc1cc2c(N3CCc4c(cc(Cn5ccnc5)cc4-c4cn(C)nc4C(F)(F)F)C3=O)cc(C)nc2c(OC)n1 + Cc1cccc(N(C)C(=O)C2C(O)CCN2c2nc(C)cc(C(F)(F)F)c2C#N)c1

>  <assayedTarget>
282377-053-R-J1-PDC complex spheroid viability

>  <endpointUnit>
%

>  <reportedResult>
90.3

$$$$
>  <molecule>
COc1cccc2c1C(=O)c1c(O)c3c(c(O)c1C2=O)CC(O)(C(=O)CO)CC3OC1CC(N)C(O)C(C)O1 (stereo not given) + COC1C(OC(N)=O)C(O)C(Oc2ccc3c(O)c(NC(=O)c4ccc(O)c(CC=C(C)C)c4)c(=O)oc3c2C)OC1(C)C

>  <assayedTarget>
282377-053-R-J1-PDC complex spheroid viability

>  <endpointUnit>
%

>  <reportedResult>
95.5

$$$$
>  <molecule>
CCc1cc2c(N3CCc4c(cc(Cn5ccnc5)cc4-c4cn(C)nc4C(F)(F)F)C3=O)cc(C)nc2c(OC)n1 + COC1C(OC(N)=O)C(O)C(Oc2ccc3c(O)c(NC(=O)c4ccc(O)c(CC=C(C)C)c4)c(=O)oc3c2C)OC1(C)C

>  <assayedTarget>
282377-053-R-J1-PDC complex spheroid viability

>  <endpointUnit>
%

>  <reportedResult>
132

$$$$
>  <molecule>
C=CCn1c(=O)c2cnc(Nc3ccc(N4CCN(C)CC4)cc3)nc2n1-c1cccc(C(C)(C)O)n1 + Cc1cccc(N(C)C(=O)C2C(O)CCN2c2nc(C)cc(C(F)(F)F)c2C#N)c1

>  <assayedTarget>
282377-053-R-J1-PDC complex spheroid viability

>  <endpointUnit>
%

>  <reportedResult>
96.8

$$$$
>  <molecule>
C#Cc1c(F)ccc2cc(O)cc(-c3ncc4c(N5CC6CCC(C5)N6)nc(OCC56CCCN5CC(F)C6)nc4c3F)c12 (stereo not given) + Cc1cccc(N(C)C(=O)C2C(O)CCN2c2nc(C)cc(C(F)(F)F)c2C#N)c1

>  <assayedTarget>
282377-053-R-J1-PDC complex spheroid viability

>  <endpointUnit>
%

>  <reportedResult>
91.9

$$$$

# credit: PubChem BioAssay AID1963852
